compounds and their reported ΔTm
Target: Envelope glycoprotein (Zaire ebolavirus (strain Mayinga-76) (ZEBOV) (Zaire Ebola virus))
Test: Binding affinity to Ebola virus Zaire Mayinga-76 recombinant GP protein assessed as change in melting temperature at 500 uM by SYPRO orange dye-based fluorescence assay
Details: 1976
property.measured: ΔTm (°C)

In [3]: df
Out[3]:
                                   compound                            assayed_system  result_number
0  Fc1ccc([C@@H]2CCNC[C@H]2COc2ccc3c(c2)OCO3)cc1  Envelope glycoprotein (Zaire ebolavirus (strain Mayinga-76) (ZEBOV) (Zaire Ebola virus))             -4
1  CN[C@H]1CC[C@@H](c2ccc(Cl)c(Cl)c2)c2ccccc21  Envelope glycoprotein (Zaire ebolavirus (strain Mayinga-76) (ZEBOV) (Zaire Ebola virus))             -3
2  CC(C)COCC(CN(Cc1ccccc1)c1ccccc1)N1CCCC1 (centres undefined)  Envelope glycoprotein (Zaire ebolavirus (strain Mayinga-76) (ZEBOV) (Zaire Ebola virus))             -6
3  CN1[C@@H]2CC[C@@H]1CC(OC(c1ccccc1)c1ccccc1)C2 (relative stereo)  Envelope glycoprotein (Zaire ebolavirus (strain Mayinga-76) (ZEBOV) (Zaire Ebola virus))             -6

###

Target: Envelope glycoprotein (Zaire ebolavirus (strain Mayinga-76) (ZEBOV) (Zaire Ebola virus))
Sequence (Q05320 whole entry): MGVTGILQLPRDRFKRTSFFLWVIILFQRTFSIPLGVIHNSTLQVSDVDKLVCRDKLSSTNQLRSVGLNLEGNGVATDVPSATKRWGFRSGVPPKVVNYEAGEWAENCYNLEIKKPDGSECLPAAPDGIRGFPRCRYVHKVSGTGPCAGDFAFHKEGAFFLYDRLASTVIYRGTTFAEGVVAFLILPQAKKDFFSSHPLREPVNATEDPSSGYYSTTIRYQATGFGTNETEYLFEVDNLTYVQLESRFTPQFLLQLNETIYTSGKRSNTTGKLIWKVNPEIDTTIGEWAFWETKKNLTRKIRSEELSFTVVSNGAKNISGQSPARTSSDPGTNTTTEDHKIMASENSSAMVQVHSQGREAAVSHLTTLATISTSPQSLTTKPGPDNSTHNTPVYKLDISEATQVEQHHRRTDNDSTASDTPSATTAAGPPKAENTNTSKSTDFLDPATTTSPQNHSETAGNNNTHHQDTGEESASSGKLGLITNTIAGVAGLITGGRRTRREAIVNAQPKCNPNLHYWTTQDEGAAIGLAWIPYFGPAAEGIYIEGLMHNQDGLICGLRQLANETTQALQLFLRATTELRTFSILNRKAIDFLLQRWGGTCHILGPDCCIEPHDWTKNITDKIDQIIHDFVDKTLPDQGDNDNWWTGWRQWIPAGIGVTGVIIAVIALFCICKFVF
Assay: Binding affinity to Ebola virus Zaire Mayinga-76 recombinant GP protein by SYPRO orange dye-based fluorescence assay
compounds and their reported Kd
property.measured: Kd (µM)

                                   compound  reading_unit  result_number
0  Fc1ccc([C@@H]2CCNC[C@H]2COc2ccc3c(c2)OCO3)cc1            µM            650
1  CC(C)COCC(CN(Cc1ccccc1)c1ccccc1)N1CCCC1 (configuration not stated)            µM            290

# credit: ChEMBL document CHEMBL4024787
